Experiment: Caspase-3/7 induction in HepG2 cells by small molecules, qHTS assay (AID 1346978); also: % is scaled to controls: 0 for no effect and ±100 for the full control effect; nearly all actives have a fitted effect of over 15% in size
Settings: HepG2 caspase-3/7 activation, Caspase-Glo luminescence, 17 h; series mostly up to 92.4 µM
Inconclusive results are not listed. Activity calls are given as the source filed them. Calls follow the shape of the dose curve; as a rule, active = well fitted activation curve with a large enough effect in the repeat runs; inconclusive = weak or mixed curves; inactive = flat fitted curve, though single readings scatter.

[
  {
    "compound": "CCN(CC#N)c1cccc(C)c1",
    "caspase activation": "inactive"
  },
  {
    "compound": "CC(C)C[C@@H](N)C(=O)O",
    "caspase activation": "-0.781% [at 19 µM] (inactive)"
  },
  {
    "compound": "NC(N)=NCCN1CCCCCCC1",
    "caspase activation": "-1.67% [at 0.349 µM] (inactive)"
  },
  {
    "compound": "C=CCCC(=O)O",
    "caspase activation": "inactive"
  },
  {
    "compound": "CCC1C(=O)OCC1Cc1cncn1C (stereo not drawn)",
    "caspase activation": "inactive"
  },
  {
    "compound": "[K+]",
    "caspase activation": "inactive"
  },
  {
    "compound": "Nc1ccn([C@@H]2O[C@H](CO)[C@@H](O)C2O)c(=O)n1 (stereo partly drawn)",
    "caspase activation": "inactive"
  },
  {
    "compound": "c1ccc2sc(SN3CCOCC3)nc2c1",
    "caspase activation": "inactive"
  }
]
